System: Biomphalaria alexandrina
PROCEDURE_TEXT: Molluscicidal activity against Biomphalaria alexandrina assessed as number of dead snail per 10 snails at 4 ppm after 24 hrs
Type: functional
# reported Activity; entries follow

# SMILES_DATA, Activity
data = [
    ("CC(=O)/C(C(=O)c1ccccc1)=C1/SC(C(=O)c2ccccc2)=NN1c1ccc(C)cc1", 2),
    ("Cc1c(C(=O)O)sc(Nc2ccccc2)c1C(=O)c1ccccc1", 1),
    ("Cc1c(C(=O)c2ccccc2)sc(Nc2ccccc2)c1C(=O)c1ccccc1", 1),
    ("CC(=O)/C(C(=O)c1ccccc1)=C1/SC(C(=O)c2ccccc2)=NN1c1ccccc1", 2),
    ("CC(=O)c1sc(Nc2ccccc2)c(C(=O)c2ccccc2)c1C", 1),
    ("CCOC(=O)c1sc(Nc2ccccc2)c(C(=O)c2ccccc2)c1C", 0),
    ("COc1ccc(N2N=C(C(=O)c3ccccc3)S/C2=C(/C(C)=O)C(=O)c2ccccc2)cc1", 1),
    ("Cc1n[nH]c(Nc2ccccc2)c1C(=O)c1ccccc1", 1),
]

---

Test system: Biomphalaria alexandrina
PROCEDURE_TEXT: Molluscicidal activity against Biomphalaria alexandrina after 24 hrs
Assay type: functional
LC90 less than 20 ppm is label 1; LC90 greater than or equal to 20 ppm is label 0.

# SMILES_DATA, CATEGORY
data = [
    ("Cc1c(C(=O)O)sc(Nc2ccccc2)c1C(=O)c1ccccc1", "label 0"),
    ("CC(=O)/C(C(=O)c1ccccc1)=C1/SC(C(=O)c2ccccc2)=NN1c1ccccc1", "label 1"),
    ("CC(=O)/C(C(=O)c1ccccc1)=C1/SC(C(=O)c2ccccc2)=NN1c1ccc(C)cc1", "label 1"),
    ("CC(=O)c1sc(Nc2ccccc2)c(C(=O)c2ccccc2)c1C", "label 0"),
    ("Cc1n[nH]c(Nc2ccccc2)c1C(=O)c1ccccc1", "label 1"),
    ("COc1ccc(N2N=C(C(=O)c3ccccc3)S/C2=C(/C(C)=O)C(=O)c2ccccc2)cc1", "label 1"),
]
